phosphorylation enrichment values, listed per item
- MEASUREMENT_TARGET: EPHB1 (UniProt P54762)
- Sequence (P54762 whole entry, looked up): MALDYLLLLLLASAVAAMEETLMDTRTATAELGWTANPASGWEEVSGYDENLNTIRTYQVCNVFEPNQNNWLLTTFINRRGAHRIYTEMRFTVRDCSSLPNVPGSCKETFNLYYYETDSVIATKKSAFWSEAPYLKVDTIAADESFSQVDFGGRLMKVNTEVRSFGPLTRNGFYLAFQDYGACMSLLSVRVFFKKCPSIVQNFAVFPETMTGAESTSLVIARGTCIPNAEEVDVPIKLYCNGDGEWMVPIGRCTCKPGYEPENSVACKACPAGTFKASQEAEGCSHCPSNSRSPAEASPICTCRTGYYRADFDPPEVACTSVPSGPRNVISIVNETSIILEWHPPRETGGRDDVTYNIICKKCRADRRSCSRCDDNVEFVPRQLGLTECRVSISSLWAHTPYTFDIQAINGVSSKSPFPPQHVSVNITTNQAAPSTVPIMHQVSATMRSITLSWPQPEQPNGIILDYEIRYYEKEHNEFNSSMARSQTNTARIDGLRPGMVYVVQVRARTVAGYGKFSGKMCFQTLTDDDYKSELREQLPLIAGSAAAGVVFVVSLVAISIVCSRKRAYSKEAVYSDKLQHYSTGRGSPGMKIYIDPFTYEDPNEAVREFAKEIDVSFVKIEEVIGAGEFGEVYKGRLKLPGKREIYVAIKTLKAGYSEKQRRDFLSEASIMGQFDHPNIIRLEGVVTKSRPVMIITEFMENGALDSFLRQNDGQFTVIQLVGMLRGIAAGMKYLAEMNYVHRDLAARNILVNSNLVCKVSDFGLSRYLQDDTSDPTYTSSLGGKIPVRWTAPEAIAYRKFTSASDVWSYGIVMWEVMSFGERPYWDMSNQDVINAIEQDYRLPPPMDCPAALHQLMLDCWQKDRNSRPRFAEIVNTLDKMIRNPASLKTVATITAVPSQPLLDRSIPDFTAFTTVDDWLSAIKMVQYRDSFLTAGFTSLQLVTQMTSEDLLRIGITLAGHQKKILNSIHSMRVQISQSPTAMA
- PROTOCOL_SUMMARY: phosphorylation enrichment, bacterial display (enrichment ratio); higher = better substrate or ligand; peptides without Tyr show the background;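 also: 11-residue human phosphosite peptides and single-mutation variants displayed on the E. coli surface, counted by deep sequencing, each peptide's frequency after selection divided by its frequency in the unselected input library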;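 also: frequency after pTyr selection over input frequency; kinase dosed for 20-30% of maximal phosphorylation in three min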
PROPERTY: phosphorylation enrichment

| BIOPOLYMER_SEQUENCE | VALUE_MEASURED |
| --- | --- |
| WQQQSYLFSGI [CTNNB1_Y30_D32Y_YF] | 0.461 |
| KNDSNYVVKGN [KIT_Y823] | 0.303 |
| GHMFAYDWISI [BEST1_Y227_L224M_YF] | 1.05 |
| RDSQIYAVDFE [MRPS34_Y34_L33I_YF] | 1.08 |
| KDGSGYISAAE [CALM1_Y100_N98S] | 0.388 |
| LVQAEYWHDRI [PPT1_Y185_P189R] | 0.684 |
| PSELYYSKIGP [SMG1_Y2254] | 5.13 |
| EPDSLYGCGRG [ATM_Y2019_G2023R] | 0.534 |
| ILLAGCLVMVI [SLC28A3_Y113_Y113C] | 0.607 |
| TEAEPYFCSLR [NPHS1_Y1138_R1140C_YF] | 0.565 |
| YRDALYKFMVD [PHEX_Y250] | 1.24 |
| GEDEPYSEPYA [APBA1_Y183] | 0.542 |
| AKLDIYKRKVE [VWA3B_Y918_N916D] | 0.295 |
| KKLAEYGPQGR [CLCA1_Y147] | 0.376 |
| PESIPYRKFTT [NTRK1_Y701_L700P] | 0.598 |
| AKLNIYKRKVE [VWA3B_Y918] | 0.309 |
| TRDTDYQMTKR [ADA_Y308_L304R] | 0.383 |
| RSAGKDDVFLI [MECP2_Y120_Y120D_YF] | 0.646 |
| MLEVSYVDRNS [F10_Y384_P383S] | 0.48 |
| IVAEYYDNLPH [DEGS1_Y284_A280V] | 1.09 |
| FLRKEYGGLNV [CBR3_Y81] | 0.4 |
| GPSTPYTKSKR [SMARCC2_Y324] | 0.322 |
| KILTHYKRPHT [KMT2D_Y5349] | 0.359 |
| ISSLRYKLLEE [TRPC6_Y896_E897K] | 0.514 |
| ALAAPYVLYPS [CEFIP_Y1332_G1337S] | 0.652 |
| HPFNSYTFPRL [PAK5_Y316_S312P_YF] | 0.683 |
| SEDANYKRVSC [TTC3_Y1288] | 0.558 |
| YGGLRYGYGVL [KRTAP20-2_Y13] | 0.415 |
| GGFNNYGFGSD [HNRNPH3_Y159_N163S_YF] | 0.7 |

###

- Tested on: c-Abl (mouse)
- PROTOCOL_SUMMARY: phosphorylation enrichment, bacterial display (enrichment ratio); higher = better substrate or ligand; peptides without Tyr show the background
Recorded measurements of phosphorylation enrichment, one per entry

| BIOPOLYMER_SEQUENCE | phosphorylation enrichment |
| --- | --- |
| SVEVPYEPPEV [TP53_Y220_V217E] | 1.08 |
| SEDANYKRVSC [TTC3_Y1288] | 0.82 |
| KGNMYYENSYA [EGFR_Y113_R108K] | 0.474 |
| TVFENYVADIE [RHOA_Y42] | 0.861 |
| ESMLRYEVFGG [STOX1_Y607_YF] | 0.956 |
| SGIFQYNIAKF [FOXL2_Y83_I84N_YF] | 0.739 |
| KDQGGYTMHQD [MAPT_Y29] | 0.569 |
| DVSVVCSEVKT [FCRL4_Y493_Y493C] | 0.867 |
| EFLHKYKGFKI [SYNE1_Y6953_Q6951H_YF] | 0.697 |
| DRLASNLDKVR [KRT10_Y160_Y160N] | 0.481 |
| EVKAQYEDIAQ [KRT1_Y358] | 0.774 |
| LARDMDDKEYY [MET_Y1230_Y1230D] | 1.2 |
| AKGMKYVASKK [MET_Y1194_L1195V] | 0.451 |
| KDKLPYLYDDP [GPX2_Y125_P126L] | 0.547 |
| PQGVRYTFTID [DCX_Y103_I104T_YF] | 1.55 |
| IGERTYGQVYK [CDK13_Y716_G714R] | 0.536 |
| PDNEPYIFKVF [PIK3AP1_Y553] | 1.19 |
| SVVVPYETPEV [TP53_Y220_P222T] | 0.849 |
| VEDHYYEGGIG [TKT_Y564] | 0.837 |
| QGLRLYRPHLP [BTK_Y617_A622P] | 0.712 |
| DYYDLYGGEKL [PTPN11_Y66_F71L] | 0.871 |
| FGYPGYQSKHY [TIMP3_Y177] | 0.496 |
| KNKNRCKNILP [PTPN11_Y279_Y279C] | 1.37 |
| SREALYNEMDP [CACNA1A_Y794] | 0.852 |
| EKLQKYFRQNP [EHHADH_Y682_YF] | 0.942 |
| SVVVPYGPPEV [TP53_Y220_E221G] | 0.601 |
| FRNSLYAPDFS [FAM92A_Y226_YF] | 0.563 |
| QQLDKYQELLD [LMNA_Y359_E358K] | 0.789 |
| PYYASYPPSPD [GDAP2_Y491_T489A] | 4.3 |
